The values you see were collected from patent US12404295B2.

Assayed system: human Gal-3 (hGal-3) (Homo sapiens (Human), UniProt P17931)
Sequence (P17931 whole entry): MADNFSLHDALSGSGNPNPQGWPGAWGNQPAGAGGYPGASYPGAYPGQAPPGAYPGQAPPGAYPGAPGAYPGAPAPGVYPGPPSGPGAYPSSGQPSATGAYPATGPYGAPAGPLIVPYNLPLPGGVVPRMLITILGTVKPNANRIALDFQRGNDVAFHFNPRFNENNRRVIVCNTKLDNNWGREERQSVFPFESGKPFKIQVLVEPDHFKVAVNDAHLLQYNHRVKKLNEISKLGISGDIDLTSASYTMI
Run description: competitive binding assay: biotinylated hGal-3 binding to microplate-adsorbed asialofetuin (ASF)
Condition info: Table 5; read-out: IC50 (Gal-3 inhibition)
pIC50: −log10 of the molar value.
Binary call on pIC50: Y from 7 upward, N beneath that.

Compound	Label
Cc1ccccc1[C@@H](S[C@@H]1O[C@H](CO)[C@H](O)[C@H](n2cc(-c3cc(F)c(F)c(F)c3)nn2)[C@H]1O)C1(O)CCOCC1 [Example 2.41.102R.]	Y
CN1CCC(O)(C(S[C@@H]2O[C@H](CO)[C@H](O)[C@H](n3cc(-c4cc(F)c(F)c(F)c4)nn3)[C@H]2O)c2ncccc2C(F)(F)F)CC1 (stereo partly drawn)	N
Cc1nc(C)c([C@H](S[C@@H]2O[C@H](CO)[C@H](O)[C@H](n3cc(-c4cc(F)c(F)c(F)c4)nn3)[C@H]2O)C2(O)CCOCC2)nc1C [Example 2.41.119S.]	N
